- assayed_target: human 5-HT2C receptor (Homo sapiens, UniProt P28335)
- Construct: expressed in transfected cells; host or cells: CHO (Chinese Hamster Ovary) cells; membrane preparation
- Sequence (P28335 33-458): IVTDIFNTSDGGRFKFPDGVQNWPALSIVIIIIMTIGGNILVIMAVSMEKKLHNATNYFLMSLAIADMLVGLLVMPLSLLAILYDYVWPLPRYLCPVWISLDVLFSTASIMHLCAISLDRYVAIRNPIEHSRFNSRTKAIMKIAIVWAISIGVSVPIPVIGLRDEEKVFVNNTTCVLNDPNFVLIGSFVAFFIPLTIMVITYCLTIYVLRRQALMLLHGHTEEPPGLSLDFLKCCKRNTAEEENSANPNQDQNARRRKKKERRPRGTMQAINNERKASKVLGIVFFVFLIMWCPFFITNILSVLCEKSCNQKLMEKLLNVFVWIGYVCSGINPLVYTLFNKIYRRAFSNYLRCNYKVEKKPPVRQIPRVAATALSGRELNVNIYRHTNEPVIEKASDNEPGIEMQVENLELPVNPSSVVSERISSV
- run_description: 5-HT2C receptor-stimulated calcium mobilization (FLIPR) in CHO cells
- Type: cell-based
- test_conditions: CHO; read-out: 5-HT2C Function EMax (%)

| compound | Emax |
| --- | --- |
| NC[C@H]1CNc2cccc(-c3ccccc3C(F)(F)F)c2O1 [Example 47] | 80% |
| NCC1COc2cc(Cl)cc(-c3ccccc3Cl)c2N1 (racemic) [Example 36] | 53% |
| NCC1CN(CC2CC2)c2cccc(-c3ccccc3Cl)c2O1 (racemic) [Example 12] | 40% |
| Cc1ccccc1-c1cccc2c1OC(CN)CN2 (racemic) [Example 17] | 72% |
| COc1ccc(-c2cccc3c2OC(CN)CN3C)c(C)c1 (racemic) [Example 5] | 80% |
| CN1CC(CN)Oc2c(-c3cc(Cl)ccc3Cl)cccc21 (racemic) [Example 13] | 70% |
| NC[C@@H]1CNc2cccc(-c3ccccc3Cl)c2O1 [Example 40] | 45% |
| NCC1CNc2cccc(-c3cc(Cl)ccc3Cl)c2O1 (racemic) [Example 14] | 60% |
| COc1ccc(-c2cccc3c2OC(CN)CN3C)cc1 (racemic) [Example 6] | 80% |
| NCC1CNc2cc(F)cc(-c3c(Cl)cccc3Cl)c2O1 (racemic) [Example 10] | 70% |
